A collection of compounds and their measured EC50
system: genotype 1b transient replicon; test: 1b transient replicon (luciferase reporter); format: cell-based, HCV; settings: Hepatitis C virus, HuH-7 cells, 5% FBS

Sample answers from the record:
(Q) Give the value of EC50 reported for the following: `COc1ccc2c(c1)nc(O[C@@H]1C[C@H]3C(=O)N[C@]4(C(=O)NS(=O)(=O)C5(C)CC5)C[C@H]4/C=C\CCCCC[C@H](NC(=O)c4ccon4)C(=O)N3C1)c1ccc(F)cc12`
(A) 0.1 to 0.5 nM

(Q) Give the value of EC50 reported for the following: `CC1(S(=O)(=O)NC(=O)[C@@]23C[C@H]2/C=C\CCCCC[C@H](NC(=O)c2ccns2)C(=O)N2C[C@H](Oc4nc5cc(F)ccc5c5ccccc45)C[C@H]2C(=O)N3)CC1`
(A) 0.1 to 0.5 nM

(Q) Give the value of EC50 reported for the following: `CC1(S(=O)(=O)NC(=O)[C@@]23C[C@H]2/C=C\CCCCC[C@H](NC(=O)c2cscn2)C(=O)N2C[C@H](Oc4nc5cc(F)ccc5c5cc(F)ccc45)C[C@H]2C(=O)N3)CC1`
(A) 0.1 to 0.5 nM

(Q) Give the value of EC50 reported for the following: `Cc1cc(C(=O)N[C@H]2CCCCC/C=C\[C@@H]3C[C@@]3(C(=O)NS(=O)(=O)C3(C)CC3)NC(=O)[C@@H]3C[C@@H](Oc4nc5ccccc5c5ccc(OC(F)(F)F)cc45)CN3C2=O)no1`
(A) 0.1 to 0.5 nM

In the following, a different compound is considered.
(Q) Give the value of EC50 reported for the following: `CC1(S(=O)(=O)NC(=O)[C@@]23C[C@H]2/C=C\CCCCC[C@H](NC(=O)[C@H](O)C(F)(F)F)C(=O)N2C[C@H](Oc4nc5ccccc5c5cc(F)ccc45)C[C@H]2C(=O)N3)CC1`
(A) < 0.1 nM

* * *

test system: genotype 1a replicon (1a-H77); assay: 1a stable replicon (luciferase reporter); format: cell-based, HCV; conditions: Hepatitis C virus, Huh-7, luciferase reporter, HuH-7 cells, 5% FBS
A collection of molecules and their measured EC50

Sample answers from the record:
(Q) State measured EC50 of the molecule `CC1(S(=O)(=O)NC(=O)[C@@]23C[C@H]2/C=C\CCCCC[C@H](NC(=O)c2cncs2)C(=O)N2C[C@H](Oc4nc5cc(F)ccc5c5cc(F)ccc45)C[C@H]2C(=O)N3)CC1` with genotype 1a replicon (1a-H77).
(A) > 1 nM

(Q) State measured EC50 of the molecule `Cn1ccc(C(=O)N[C@H]2CCCCC/C=C\[C@@H]3C[C@@]3(C(=O)NS(=O)(=O)C3(C)CC3)NC(=O)[C@@H]3C[C@@H](Oc4nc5ccccc5c5cc(F)ccc45)CN3C2=O)n1` with genotype 1a replicon (1a-H77).
(A) 0.5 to 1 nM

More entries:
(Q) State measured EC50 of the molecule `Cc1ccc(C(=O)N[C@H]2CCCCC/C=C\[C@@H]3C[C@@]3(C(=O)NS(=O)(=O)C3(C)CC3)NC(=O)[C@@H]3C[C@@H](Oc4nc5cc(F)ccc5c5ccccc45)CN3C2=O)s1` with genotype 1a replicon (1a-H77).
(A) 0.5 to 1 nM

(Q) State measured EC50 of the molecule `CC1(S(=O)(=O)NC(=O)[C@@]23C[C@H]2/C=C\CCCCC[C@H](NC(=O)c2ccc(F)s2)C(=O)N2C[C@H](Oc4nc5cc(F)ccc5c5ccccc45)C[C@H]2C(=O)N3)CC1` with genotype 1a replicon (1a-H77).
(A) 0.5 to 1 nM

(Q) State measured EC50 of the molecule `Cn1ccc(C(=O)N[C@H]2CCCCC/C=C\[C@@H]3C[C@@]3(C(=O)NS(=O)(=O)C3CC3)NC(=O)[C@@H]3C[C@@H](Oc4nc5cccc(F)c5c5ccccc45)CN3C2=O)n1` with genotype 1a replicon (1a-H77).
(A) 0.5 to 1 nM

All values here come from patent US8951964B2.
